I'd be grateful if you could share measured normalized growth for these entries.
Assay comment: chemical genetic growth profiling, strain panel (AID 1159580);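 further: tested at 20 µM; growth read once vehicle control cultures reached saturation at 30 °C; 1 = growth at the plate median or of vehicle wells; lower values mean less growth of the strain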
Reported conditions: S. cerevisiae deletion strains, growth OD, locus YOR061W, strain CKA2, active compounds read low
Hit rate of the full screen: of about 5,500 compounds, about 2,000 (36%) were called active. About 18% were inconclusive and are not listed. This is one part of the list.
// return just the number, without any unit appended

Need normalized growth of CC(=O)O[C@@H]1CC2C(C)(C)C(=O)C3OC3[C@]2(C)C2CC[C@@]3(C)[C@H](c4ccoc4)OC(=O)C4OC43[C@@]21C (stereo partly drawn) , thanks.
1

Next entry: CC(=O)O[C@H]1CC[C@@]2(C)C(C[C@@H](OC(C)=O)[C@]3(C)C2CC[C@@]2(C)[C@H](c4ccoc4)OC(=O)[C@H]4O[C@]423)C1(C)C (stereo partly drawn)
1

Moving on to CC(=O)O[C@H]1C[C@@H](OC(C)=O)C(C)(C)C2C[C@@H](OC(C)=O)[C@]3(C)C(CC[C@@]4(C)[C@H](c5ccoc5)OC(=O)[C@H]5O[C@]543)[C@]21C (stereo partly drawn)
0.997
